Measured values drawn from patent US9546153B2 for this set.

Tested on: TLR2 induced IL-6 in peripheral blood mononuclear cells (PBMCs)
Assay: PBMC TLR2 Induced IL-6 Assay
Type: cell-based, human
Details: Homo sapiens, PBMC, 5 h, human PBMCs, 10 μg/ml lipoteichoic acid for 5 hours, IL-6 by ELISA; value without asterisk; read-out: Cell IC50
pIC50: recorded values
pIC50 (log units): -log10 of the concentration in mol/L.

See these solved cases before continuing.
INSERT INTO measurements (molecule, assay_value) VALUES
  ('CC(C)Nc1cc(Nc2ccc3ncsc3c2)ncc1C(=O)NCC[C@@H](C)NC(=O)CC1CCCOC1 (stereo partly drawn) [Example 194]', 6.68),
  ('CC(C)(O)CCNC(=O)c1cnc(Nc2ccc3ncsc3c2)cc1NC1CC1 [Example 9]', 6.54),
  ('CC(C)(O)c1cnc(Nc2cc(Nc3ccn4nccc4n3)ncc2C(=O)NC[C@@H](F)C(C)(C)O)s1 [Example 421]', 6.88),
  ('CCC(C)Nc1cc(Nc2ccn3nccc3c2)ncc1C(=O)NC[C@@H](F)C(C)(C)O (stereo partly drawn) [Example 302]', 6.37),
  ('CC(C)Nc1cc(Nc2ccc3ncsc3c2)ncc1C(=O)NCC[C@@H](C)NC(=O)CC1CCCCC1(F)F (stereo partly drawn) [Example 188]', 6.29);

Request: Which pIC50 is listed for CC(C)(O)[C@H](F)CNC(=O)c1cnc(Nc2ccc3ncsc3c2)cc1NCC1CCCO1 (stereo partly drawn) [Example 93] ?
Response: 6.21

Request: Further, for CC(C)(O)[C@H](F)CNC(=O)c1cnc(Nc2ccc3nccnc3c2)cc1NC1CCCOC1 (stereo partly drawn) [Example 71] ?
Response: 6.38

Request: Further, for CC(C)(O)[C@H](F)CNC(=O)c1cnc(Nc2ccc3ncc(F)cc3n2)cc1NC1CC1 [Example 429] ?
Response: 6.89

Request: Further, for CC(C)(O)[C@H](F)CNC(=O)c1cnc(Nc2ccn3nccc3n2)cc1NCC(F)(F)F [Example 238] ?
Response: 6.23

Request: Further, for CC(C)(F)CNc1cc(Nc2cc3scnc3cc2F)ncc1C(=O)NC[C@@H](F)C(C)(C)O [Example 454] ?
Response: 7.42
